test system: Staphylococcus aureus 6097; test: Dose titration in the mouse mastitis model (S. aureus-induced murine mastitis); assay type: in vivo; conditions: route IMM (intramammary); mice, 1 hour after infection, read 6 days after infection; 50% of mice without mastitis
reported.metric: ED (mg/kg/d) Mastitis (mg/kg/day)
// return numeric value only (unit: mg/kg/day, not printed)

Sample answers from the record:
compound="COC1/C=C/OC2(C)Oc3c(C)c(O)c4c(=O)c(c5oc6cc(N7CCN(CC(C)C)CC7)cc(O)c6nc-5c4c3C2=O)NC(=O)/C(C)=C\\C=C\\C(C)C(O)C(C)C(O)C(C)C(OC(C)=O)C1C (centres unmarked)" data_value=0.3
compound="COC1/C=C/OC2(C)Oc3c(C)c(O)c4c(=O)c(c5oc6cc(N7CCN(C)CC7)cc(O)c6nc-5c4c3C2=O)NC(=O)/C(C)=C\\C=C\\C(C)C(O)C(C)C(O)C(C)C(OC(C)=O)C1C (centres unmarked)" data_value=0.3
compound="COC1/C=C/OC2(C)Oc3c(C)c(O)c4c(=O)c(c5oc6cc(N7CCN(C(C)C)CC7)cc(O)c6nc-5c4c3C2=O)NC(=O)/C(C)=C\\C=C\\C(C)C(O)C(C)C(O)C(C)C(OC(C)=O)C1C (centres unmarked)" data_value=0.2

Could you tell me which ED (mg/kg/d) Mastitis is on file for CCN1CCN(c2cc(O)c3nc4c5c6c7c(C)c(O)c5c(=O)c(c-4oc3c2)NC(=O)/C(C)=C\C=C\C(C)C(O)C(C)C(O)C(C)C(OC(C)=O)C(C)C(OC)/C=C/OC(C)(O7)C6=O)CC1 (centres unmarked) ?
0.3

Could you tell me which ED (mg/kg/d) Mastitis is on file for CO[C@H]1/C=C/O[C@@]2(C)Oc3c(C)c(O)c4c(O)c(c(/C=N/N5CCN(C)CC5)c(O)c4c3C2=O)NC(=O)/C(C)=C\C=C\[C@H](C)[C@H](O)[C@@H](C)[C@@H](O)[C@@H](C)[C@H](OC(C)=O)[C@@H]1C [Rifampin, reference compound] ?
0.4

---

test system: Staphylococcus aureus 9203; assay: S. aureus intracellular killing assay in bovine PMN; format: cell-based; conditions: 100X MIC, overnight incubation (18 to 21 hours)
reported.metric: CFU/ml ISD (×10^3)

# returns recorded CFU/ml ISD (×10^3) (system: Staphylococcus aureus 9203) for Cc1onc(-c2ccccc2Cl)c1C(=O)N[C@@H]1C(=O)N2[C@@H]1SC(C)(C)[C@@H]2C(=O)O [Cloxacillin, reference compound]
5.9 ± 1.9 CFU/ml (×10^3)

# returns recorded CFU/ml ISD (×10^3) (system: Staphylococcus aureus 9203) for COC1/C=C/OC2(C)Oc3c(C)c(O)c4c(=O)c(c5oc6cc(N7CCN(CC(C)C)CC7)cc(O)c6nc-5c4c3C2=O)NC(=O)/C(C)=C\C=C\C(C)C(O)C(C)C(O)C(C)C(OC(C)=O)C1C (stereo not drawn)
0.0 CFU/ml (×10^3)

---

Documented ED (mg/kg/d) Culture across a set of compounds
test system: Staphylococcus aureus 6097; assay: Dose titration in the mouse mastitis model (S. aureus-induced murine mastitis); format: in vivo; settings: route IMM (intramammary); mice, read 6 days after infection; 50% of mice with no bacteria cultured from gland
// return numeric value only (unit: mg/kg/day, not printed)

Sample answers from the record:
compound="COC1/C=C/OC2(C)Oc3c(C)c(O)c4c(=O)c(c5oc6cc(N7CCN(CC(C)C)CC7)cc(O)c6nc-5c4c3C2=O)NC(=O)/C(C)=C\\C=C\\C(C)C(O)C(C)C(O)C(C)C(OC(C)=O)C1C (centres unmarked) [R = isobutyl]" tested_target="Staphylococcus aureus 6097" data_value=0.3
compound="COC1/C=C/OC2(C)Oc3c(C)c(O)c4c(=O)c(c5oc6cc(N7CCN(C(C)C)CC7)cc(O)c6nc-5c4c3C2=O)NC(=O)/C(C)=C\\C=C\\C(C)C(O)C(C)C(O)C(C)C(OC(C)=O)C1C (centres unmarked) [R = isopropyl]" tested_target="Staphylococcus aureus 6097" data_value=0.2
compound="CCN1CCN(c2cc(O)c3nc4c5c6c7c(C)c(O)c5c(=O)c(c-4oc3c2)NC(=O)/C(C)=C\\C=C\\C(C)C(O)C(C)C(O)C(C)C(OC(C)=O)C(C)C(OC)/C=C/OC(C)(O7)C6=O)CC1 (centres unmarked) [R = ethyl]" tested_target="Staphylococcus aureus 6097" data_value=0.4

We next turn to a different compound, shown below.
Could you tell me which ED (mg/kg/d) Culture is on file for COC1/C=C/OC2(C)Oc3c(C)c(O)c4c(=O)c(c5oc6cc(N7CCN(C)CC7)cc(O)c6nc-5c4c3C2=O)NC(=O)/C(C)=C\C=C\C(C)C(O)C(C)C(O)C(C)C(OC(C)=O)C1C (centres unmarked) [R = methyl] ?
0.3
